System: Shigella boydii
protocol_text: Antibacterial activity against Shigella boydii assessed as diameter of inhibition zone at 1 mg/ml incubated for 24 hrs by agar well diffusion assay
Type: functional
test_settings: read-out: DIZ
# zone of inhibition at 1000 µg/mL per record follows
Report the figure in mm without appending any unit label.

CN(C)[C@@H]1C(O)=C(C(N)=O)C(=O)[C@@]2(O)C(O)=C3C(=O)c4c(O)cccc4[C@@](C)(O)[C@H]3C[C@@H]12: 29

Task: Give a short answer stating reported zone of inhibition at 1000 µg/mL for `O=C(N/N=C/c1cc([N+](=O)[O-])ccc1OCc1cn(-c2ccccc2Cl)nn1)c1ccncc1` .
Result: 7

Task: Annotate the molecule `COc1ccccc1-n1cc(COc2ccc([N+](=O)[O-])cc2/C=N/NC(=O)c2ccncc2)nn1` with its measured zone of inhibition at 1000 µg/mL.
Result: 13

Task: Give the value of zone of inhibition at 1000 µg/mL reported for the following: `Cc1ccccc1-n1cc(COc2ccc([N+](=O)[O-])cc2/C=N/NC(=O)c2ccncc2)nn1`
Result: 14

Task: # return recorded zone of inhibition at 1000 µg/mL for entry `O=C(N/N=C/c1cc([N+](=O)[O-])ccc1OCc1cn(-c2cccc(Cl)c2)nn1)c1ccncc1`
Result: 12

Task: Indicate its recorded zone of inhibition at 1000 µg/mL; the molecule in question is `COc1ccc(-n2cc(COc3ccc([N+](=O)[O-])cc3/C=N/NC(=O)c3ccncc3)nn2)cc1`
Result: 14
